# experiment-notes: Permeability Papp (AB) MDR1/MDCKII
# condition-summary: In vitro MDR1-MDCKII permeability, recovery A to B, mean
Listed molecules paired with reported perc_recovery_a_to_b_mean

{"molecule": "CC(C)[C@H](Nc1ncnc2[nH]ccc12)c1ccc2c(c1)NC(=O)CO2 [ASAP-0008430]", "perc_recovery_a_to_b_mean / %": 90.0}
{"molecule": "CNCc1cc(-c2cc3c(N[C@@H](c4ccc5c(c4)S(=O)(=O)CCC5)C(C)C)ncnc3[nH]2)co1 [ASAP-0010745]", "perc_recovery_a_to_b_mean / %": 90.5}
{"molecule": "CC(C)[C@@H](Nc1ncnc2[nH]c(-c3cnn(C)c3C#N)cc12)c1ccc2c(n1)OCCO2 [ASAP-0010716]", "perc_recovery_a_to_b_mean / %": 85.7}
{"molecule": "CC(C)[C@@H](Nc1ncnc2[nH]c(-c3cnn(CC(=O)N(C)C)c3)cc12)c1ccc2c(c1)OCCO2 [ASAP-0008485]", "perc_recovery_a_to_b_mean / %": 80.8}
{"molecule": "CNCc1cc(-c2cc3c(N[C@@H](c4ccc5c(c4)S(=O)(=O)CCC5)C(C)C)ncnc3[nH]2)co1 [ASAP-0011176]", "perc_recovery_a_to_b_mean / %": 78.9}
{"molecule": "CC(C)[C@H](Nc1ncnc(N)c1Cl)c1ccc2c(c1)S(=O)(=O)CCC2 (racemic) [ASAP-0010739]", "perc_recovery_a_to_b_mean / %": 58.5}
{"molecule": "CNC(=O)c1cc2c(N[C@@H](c3ccc4c(c3)NC(=O)CO4)C(C)C)ncnc2[nH]1 [ASAP-0008571]", "perc_recovery_a_to_b_mean / %": 88.1}
{"molecule": "COc1ccc([C@H](CC(=O)O)NC(=O)c2ncnc3[nH]ccc23)cc1 (racemic) [ASAP-0000591]", "perc_recovery_a_to_b_mean / %": 90.0}
{"molecule": "CC(C)[C@@H](Nc1ncnc2[nH]c(-c3cnn(C)c3C#N)cc12)c1ccc2c(c1)OCCO2 (racemic) [ASAP-0008275]", "perc_recovery_a_to_b_mean / %": 36.0}

* * *

Listed molecules paired with reported perc_recovery_a_to_b_inhibitor_mean
# experiment-notes: Permeability Papp (AB) MDR1/MDCKII
# condition-summary: MDR1-MDCKII, recovery A to B, with inhibitor Cyclosporin A

{"molecule": "C[C@H](C(=O)O)[C@@H](NC(=O)c1ncnc2[nH]ccc12)c1ccc(Br)cc1", "perc_recovery_a_to_b_inhibitor_mean / %": 80.9}
{"molecule": "CNCc1cc(-c2cc3c(N[C@@H](c4ccc5c(c4)S(=O)(=O)CCC5)C(C)C)ncnc3[nH]2)co1", "perc_recovery_a_to_b_inhibitor_mean / %": 78.6}
{"molecule": "CC(C)[C@H](Nc1ncnc2[nH]c(-c3cnn(C)c3C#N)cc12)c1ccc2c(c1)S(=O)(=O)CCC2 (single isomer, unassigned)", "perc_recovery_a_to_b_inhibitor_mean / %": 78.3}

* * *

Listed compounds paired with reported t_half
# experiment-notes: Hepatic microsomal stability, HLM
# Type: in vitro ADME, human
# condition-summary: In vitro human liver microsomal stability
measurement-type: t_half

{"compound": "Cn1ncc(-c2cc3c(N[C@@H](c4ccc5c(n4)OCCO5)C(C)(C)C)ncnc3[nH]2)c1C#N", "measured": "5.9 min"}
{"compound": "Cc1nn(C)cc1-c1cc2c(N[C@H](c3ccc4c(c3)S(=O)(=O)CCC4)C(C)C)ncnc2[nH]1 (single isomer, unassigned)", "measured": "6.6 min"}
{"compound": "CCNC(=O)c1cc2c(N[C@H](c3ccc4c(c3)S(=O)(=O)CCC4)C(C)C)ncnc2[nH]1 (racemic) [ASAP-0008711]", "measured": "15.4 min"}
{"compound": "CC(C)(C)[C@@H](Nc1ncnc2[nH]c(-c3cnn(CC(N)=O)c3)cc12)c1ccc2c(n1)OCCO2", "measured": "39.8 min"}
{"compound": "CC(C)(C)[C@H](Nc1ncnc2[nH]c(-c3cnn(CC(N)=O)c3)cc12)c1ccc2c(c1)OCCO2 (single isomer, unassigned) [ASAP-0012332]", "measured": "16.8 min"}
{"compound": "CC(C)[C@H](Nc1ncnc2[nH]c(-c3cnn(CC(N)=O)c3)cc12)c1ccc2c(c1)S(=O)(=O)CCC2 (single isomer, unassigned) [ASAP-0011428]", "measured": "7.0 min"}
{"compound": "CC(C)[C@H](Nc1ncnc2[nH]c(-c3cnn(C)c3C#N)cc12)c1ccc2c(c1)NC(=O)CO2 (racemic) [ASAP-0008576]", "measured": "16.6 min"}
{"compound": "CCNC(=O)c1cc2c(N[C@H](c3ccc4c(c3)OCCO4)C(C)C)ncnc2[nH]1 (single isomer, unassigned) [ASAP-0013827]", "measured": "1.3 min"}
{"compound": "CC(C)[C@@H](Nc1ncnc2[nH]c(-c3cnn(C)c3)cc12)c1ccc2c(c1)S(=O)(=O)CCC2 (single isomer, unassigned) [ASAP-0012329]", "measured": "4.1 min"}
{"compound": "CC(C)[C@H](Nc1ncnc2[nH]c(C(=O)N[C@H]3CCN(C)C3)cc12)c1ccc2c(c1)S(=O)(=O)CCC2", "measured": "149.8 min"}
{"compound": "CC(C)[C@H](Nc1ncnc2[nH]c(-c3cnn(C)c3C#N)cc12)c1ccc2c(c1)OCCO2", "measured": "2.4 min"}
{"compound": "CC(C)[C@@H](Nc1ncnc2[nH]c(-c3cnn(C)c3C#N)cc12)c1ccc2c(c1)S(=O)(=O)CCC2 (single isomer, unassigned) [ASAP-0011147]", "measured": "3.2 min"}
{"compound": "CC(C)[C@@H](Nc1ncnc2[nH]c(-c3cnn(CC(N)=O)c3)cc12)c1ccc2c(n1)OCCO2 [ASAP-0008646]", "measured": "120.2 min"}
{"compound": "Cn1ncc(-c2cc3c(N[C@@H](c4ccc5c(c4)OCCO5)C(C)(C)C)ncnc3[nH]2)c1C#N (racemic)", "measured": "19.6 min"}
{"compound": "C[C@H](C(=O)O)[C@@H](NC(=O)c1ncnc2[nH]ccc12)c1ccc(Br)cc1", "measured": "573.861 min"}
{"compound": "CC(C)[C@@H](Nc1ncnc2[nH]c(-c3cnn(C)c3C#N)cc12)c1ccc2c(c1)S(=O)(=O)CCC2 [ASAP-0008651]", "measured": "3.4 min"}
{"compound": "CNC(=O)c1cc2c(N[C@H](c3ccc4c(c3)S(=O)(=O)CCC4)C(C)C)ncnc2[nH]1 (single isomer, unassigned)", "measured": "25.0 min"}
{"compound": "CC(C)[C@H](Nc1ncnc2[nH]ccc12)c1ccc2c(c1)NC(=O)CO2", "measured": "160.3 min"}
{"compound": "CC(C)(C)[C@H](Nc1ncnc2[nH]c(-c3cnn(CC(N)=O)c3)cc12)c1ccc2c(n1)OCCO2 (racemic) [ASAP-0008648]", "measured": "46.0 min"}
{"compound": "CC(C)[C@H](Nc1ncnc2[nH]c(-c3cnn(C)c3C#N)cc12)c1ccc2c(c1)NC(=O)CO2 (single isomer, unassigned) [ASAP-0013255]", "measured": "14.6 min"}
{"compound": "CC(C)[C@H](Nc1ncnc2[nH]ccc12)c1ccc2c(c1)S(=O)(=O)CCC2", "measured": "29.5 min"}
{"compound": "CCNC(=O)c1cc2c(N[C@H](c3ccc4c(c3)OCCO4)C(C)C)ncnc2[nH]1 [ASAP-0013824]", "measured": "24.8 min"}
